The measurements presented in this section are drawn from ChEMBL document CHEMBL1155895.

- assay_text: Ratio of drug level in brain to plasma in Sprague-Dawley rat at 10 mg/kg, po
- Assay type: ADME, organism-based
- Set-up: dose 10 mg/kg, route oral
Listed here: items and their measured Kp.
property_name: Kp

1. CC1(C)CC(=O)C([C@@H]2C3=C(CC(C)(C)CC3=O)Oc3ccccc32)=C(O)C1
0.1
2. CC1(C)CC(=O)C([C@H]2C3=C(CC(C)(C)CC3=O)Oc3ccccc32)=C(O)C1
0.34

----------
- assay_text: Tmax in Sprague-Dawley rat at 10 mg/kg, po
- Format: ADME, organism-based
- Parameters: dose 10 mg/kg, route oral
- conditions_used: in vivo
property_name: Tmax

1) CC1(C)CC(=O)C(C2C3=C(CC(C)(C)CC3=O)Oc3ccccc32)=C(O)C1 (racemic)
60 min
2) CC1(C)CC(=O)C([C@H]2C3=C(CC(C)(C)CC3=O)Oc3ccccc32)=C(O)C1
30 min
